method: chemical genetic growth profiling, strain panel (AID 1159580);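 also: tested at 20 µM; growth read once vehicle control cultures reached saturation at 30 °C; 1 = growth at the plate median or of vehicle wells; lower values mean less growth of the strain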
experimental-parameters: S. cerevisiae deletion strains, growth OD, locus YPL051W, strain arl3
Hit rate of the full screen: of about 5,500 compounds, about 2,000 (36%) were called active. Not shown: some 18% with an inconclusive outcome. Rule as the data show it: active = normalized growth mostly below about 0.91 (no sharp cut-off); inconclusive = no clear call, values can overlap the other calls; inactive = mostly above about 0.92. The list shows a part of the results.
Classes to choose from: 1 (yes) (active), 0 (no) (inactive)

CC1(C)C(=O)C=C[C@@]2(C)C1C=C[C@]1(C)C2CC[C@@]2(C)[C@H](c3ccoc3)OC(=O)C3OC321 (some centres not stated)
0 (no)
C[C@]12CCC3c4ccc(O)cc4CCC3C1CC[C@@H]2O (some centres not stated)
0 (no)

So what was the verdict on "Cc1cc(C2CCCCC2)n(O)c(=O)c1" in this test?
1 (yes)

So what was the verdict on CC(=O)OC(C)C[N+](C)(C)C (configuration not stated) in this test?
0 (no)

So what was the verdict on "COC1=CC(=O)C(O)=C/C1=C\C=C\c1ccccc1" in this test?
1 (yes)

So what was the verdict on CC(CC(C(N)=O)(c1ccccc1)c1ccccc1)N(C)C (configuration not stated) in this test?
0 (no)

So what was the verdict on "COc1cc2occc2c2oc(=O)ccc12" in this test?
0 (no)

So what was the verdict on CC1(C)C(=O)C=C[C@@]2(C)C1C[C@@H](O)[C@]1(C)C2CC[C@@]2(C)[C@H](c3ccoc3)OC(=O)[C@H]3O[C@]321 (some centres not stated) in this test?
0 (no)

So what was the verdict on "COc1cccc2c(C)cc(=O)[nH]c12" in this test?
0 (no)

So what was the verdict on "CCC(=O)c1c(O)cc(O)cc1O" in this test?
0 (no)

So what was the verdict on "CCOCN(C(=O)CCl)c1c(C)cccc1CC" in this test?
0 (no)

So what was the verdict on "COc1c2ccoc2cc2oc(=O)ccc12" in this test?
1 (yes)

So what was the verdict on CC(C)c1c(O)ccc2c1CCC1[C@@](C)(CO)CCC[C@]21C (some centres not stated) in this test?
0 (no)

So what was the verdict on CC(=O)Oc1ccc2c(c1C(C)C)CCC1C(C)(C)CCC[C@]21C (some centres not stated) in this test?
0 (no)

So what was the verdict on "CCOC(=O)c1c(C)cc(OC)cc1O" in this test?
0 (no)

So what was the verdict on Cc1ccccc1OCC(O)CO (configuration not stated) in this test?
0 (no)

So what was the verdict on CC1CCC2(OC1)OC1CC3C4CC[C@H]5C[C@@H](O)CC[C@]5(C)C4CC(=O)[C@]3(C)C1C2C (some centres not stated) in this test?
0 (no)

So what was the verdict on "CCOC(=O)c1c(C)cc(O)cc1O" in this test?
0 (no)

So what was the verdict on "Cc1[nH]ccc2c1[nH]c1cc(=O)ccc12" in this test?
0 (no)

So what was the verdict on N#Cc1nn(-c2c(Cl)cc(C(F)(F)F)cc2Cl)c(N)c1S(=O)C(F)(F)F (configuration not stated) in this test?
0 (no)

So what was the verdict on COc1ccc2c(c1)CCC1C2CC[C@@]2(C)C1CC[C@@H]2O (some centres not stated) in this test?
1 (yes)

###

method: chemical genetic growth profiling, strain panel (AID 1159580);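 also: tested at 20 µM; growth read once vehicle control cultures reached saturation at 30 °C; 1 = growth at the plate median or of vehicle wells; lower values mean less growth of the strain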
experimental-parameters: S. cerevisiae deletion strains, growth OD, locus YAL021C, strain ccr4
The campaign covered roughly 5,500 compounds. About 2,000 (36%) were called active. Roughly 18% stayed inconclusive and do not appear here. Rule as the data show it: active = normalized growth mostly below about 0.91 (no sharp cut-off); inconclusive = no clear call, values can overlap the other calls; inactive = mostly above about 0.92. Some of the results follow.
Classes to choose from: active, inactive

COc1cc(OC)c2c(=O)c(O)c(-c3ccc(OC)c(OC)c3)oc2c1
active
C[C@@H]1CC[C@@]2(OC1)O[C@H]1CC3C4CC[C@H]5C[C@@H](O)CC[C@]5(C)C4CC[C@]3(C)[C@H]1[C@@H]2C (stereo partly specified)
inactive
C[C@@H]1O[C@@H](OC[C@H]2OC(Oc3c(-c4ccc(OCCO)c(OCCO)c4)oc4cc(OCCO)cc(O)c4c3=O)[C@H](O)[C@@H](O)[C@@H]2O)[C@H](O)[C@H](O)[C@H]1O (stereo partly specified)
inactive

So what was the verdict on CC1CCC2(OC1)OC1CC3C4CC[C@H]5C[C@@H](O)CC[C@]5(C)C4CC(=O)[C@]3(C)C1C2C (stereo partly specified) in this test?
inactive

So what was the verdict on "COc1ccccc1/C=C\C(=O)O" in this test?
inactive

So what was the verdict on OC1CC2CCCC(C1)N2Cc1ccccc1 (stereo unspecified) in this test?
inactive

So what was the verdict on CO[C@@]1(NC(=O)C(C(=O)O)c2ccc(O)cc2)C(=O)N2C(C(=O)O)=C(CSc3nnnn3C)CO[C@@H]21 (stereo partly specified) in this test?
inactive

So what was the verdict on C[N+](C)(C)CC(O)CC(=O)O (stereo unspecified) in this test?
inactive
